Target: recombinant PRL-2 (Homo sapiens, UniProt Q12974)
Construct: 6xHis (N, cleaved yes); made in house; host or cells: E. coli One Shot BL21 Star
Sequence (Q12974 1-167): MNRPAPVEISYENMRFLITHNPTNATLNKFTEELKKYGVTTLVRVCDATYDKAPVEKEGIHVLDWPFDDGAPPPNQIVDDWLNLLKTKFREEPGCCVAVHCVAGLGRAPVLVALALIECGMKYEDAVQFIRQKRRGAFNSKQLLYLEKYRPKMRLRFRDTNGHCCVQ
Assay: In vitro phosphatase assay (DiFMUP hydrolysis), PRL-2;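 also: PRL-2 activity read as DiFMUP hydrolysis after 20 min at room temperature with drug, enzyme first pre-reduced at 4 °C for 20 min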
Format: biochemical
Conditions: FDA-approved drug screen; compared to DMSO
Where a name gives a salt, the structure may show the parent alone.
measuredAttribute: % Phosphatase Activity (compared to DMSO) PRL-2 (%)
Value expressed in %; do not type the unit.

>>> endpointresult("CC(=O)NO [Acetohydroxamic acid]")
111
>>> endpointresult("CC(C)Cn1cnc2c(N)nc3ccccc3c21 [Imiquimod]")
106
>>> endpointresult("O=C(O)c1cccnc1Nc1cccc(C(F)(F)F)c1 [Niflumic acid]")
112
>>> endpointresult("CCCCCCCCCCCC[N+](C)(C)CCOc1ccccc1 [Domiphen Bromide]")
104
>>> endpointresult("COC(=O)CCc1ccc(OCC(O)CNC(C)C)cc1 (stereo not shown) [Esmolol HCl]")
101

For recombinant PRL-2 (Homo sapiens, UniProt Q12974), provide % Phosphatase Activity (compared to DMSO) PRL-2 of COc1ccc(CN=c2[nH]c(N3CCC[C@H]3CO)ncc2C(=O)NCc2ncccn2)cc1Cl [Avanafil] please.
112

Please give the result for COc1cc2nc(N3CCN(C(=O)C4COc5ccccc5O4)CC3)nc(N)c2cc1OC (stereo not shown) [Doxazosin Mesylate] too.
528
